B1: Ventral anterior homeobox 1, residues 102 to 157; numbered along this chain, Q5SQQ9 (parent)
chain: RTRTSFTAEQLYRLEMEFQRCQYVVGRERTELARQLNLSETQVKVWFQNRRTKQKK

Variants of: B1
Experiment: abundance fitness (aPCA) (normalised: wild type 0, dead -1); higher = more abundant; growth selection in yeast, the domain comes from the species named
Settings: Homo sapiens
Hi there, I'd appreciate the recorded abundance fitness for every entry that follows.

K44Q; -0.091
T41W; -0.12
A8P; -0.049
F6K; -0.42
R20E; -0.261
S5W; -0.189

Look up abundance fitness for the entries below, preserving their order.
1. A33Y
2. E15F
3. E17D
4. Q35N
5. W46K

Out:
[-0.692, -0.533, -0.65, -0.206, -1.11]

Look up abundance fitness for the entries below, preserving their order.
1. L14S
2. F6D

Out:
1. -0.906
2. -0.445
